B1: glmS ribozyme (parent)
chain: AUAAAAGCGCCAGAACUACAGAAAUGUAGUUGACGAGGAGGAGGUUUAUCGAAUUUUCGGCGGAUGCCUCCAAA

- Variants of: B1
- Procedure text: self-cleavage kobs at 160 uM GlcN6P; higher = faster cleavage; RNA array
- Experimental context: with glucosamine-6-phosphate
Variants at the floor of the assay were thinned out.
Let's look at some variants and their measured self-cleavage kobs at 160 uM GlcN6P.

{"Sequence input": "AUAAAAGCGCCAGAACUACAGAAAUGUAGUCGACGAGGAGGAGGUUUAUCGAAUUUUCGGCGGAUGCCACCAAA [U31C U69A]", "Readout relation": "=", "self-cleavage kobs at 160 uM GlcN6P (s⁻¹)": "4.12e-05"}
{"Sequence input": "AUAAAAGCGCCAGAACUACAGAAAUGUAGUUGACGAGGAGGAGGUUUAACGAAAUUUCGGCGGAUGCCUGCAAA [U49A U54A C70G]", "Readout relation": "=", "self-cleavage kobs at 160 uM GlcN6P (s⁻¹)": "4.17e-05"}
{"Sequence input": "AUAAAAGCGCCAGAACUACAGAAAUGUAGUUGACGAGGAGGAGGUUUAUCGAAUUAUCGGCGGAAGCCUCCAAA [U56A U65A]", "Readout relation": "=", "self-cleavage kobs at 160 uM GlcN6P (s⁻¹)": "7.79e-05"}
{"Sequence input": "AUAAACGCGCCAGAACUACAGAAAUGUAGUUGACGAGGAGGAGUUUUAUCGAAUUUUCGGCGGAUGCCUCCAAA [A6C G44U]", "Readout relation": "<", "self-cleavage kobs at 160 uM GlcN6P (s⁻¹)": "1e-05"}
{"Sequence input": "AUAAAAGCGCCUGAACUACAGAAAUGUAGUAGACGAGGAGGAGGUUUAUCGAAUUUUCGGCGGAUGCCUCCAAA [A12U U31A]", "Readout relation": "=", "self-cleavage kobs at 160 uM GlcN6P (s⁻¹)": 0.00177}
{"Sequence input": "AUAAAAGCGCCAGAACUACAGAAAUGUAGUUGACGAGGAGGAGCUUUAUCGAAUUUUCGGCGGAUGACUCCAAA [G44C C67A]", "Readout relation": "=", "self-cleavage kobs at 160 uM GlcN6P (s⁻¹)": 0.00032}
{"Sequence input": "AUAAAAGCGCCAGAACUACAGAAAUGUAGUUGACGAGGGGGAGGUUUAUCGAAGUUUCGGCGGAUGCCUCCAAA [A39G U54G]", "Readout relation": "=", "self-cleavage kobs at 160 uM GlcN6P (s⁻¹)": 0.00227}
{"Sequence input": "AUAAAAGCGCCAGAACUACAGAAAUGUAGUUGACGGGGAGGAGGUUUAUCGAAUUUUCGGCGGUUGCCUCUAAA [A36G A64U C71U]", "Readout relation": "<", "self-cleavage kobs at 160 uM GlcN6P (s⁻¹)": "1e-05"}
{"Sequence input": "AUAAAAGAGUCAGAACUACAGAAAUGUAGUUGACGAGGAGGAGGUUUAUCGAAUUUUCGGCGGAUGCCUCCAAA [C8A C10U]", "Readout relation": "<", "self-cleavage kobs at 160 uM GlcN6P (s⁻¹)": "1e-05"}
{"Sequence input": "AUAAAAGCGCCAGAACUACAGAAAUGUAGUUGACGAGGUGGAGGUUCAUCGAAUUUUCGGCGGAUGCCUCCAAA [A39U U47C]", "Readout relation": "=", "self-cleavage kobs at 160 uM GlcN6P (s⁻¹)": 0.000748}
{"Sequence input": "AUAAAAUCGCCAGAACUACAGAAAUGUAGUUGACGAUGAGGAGGUUUAUCGAAUUUUCGGCGGAUGCCUCCAAA [G7U G37U]", "Readout relation": "<", "self-cleavage kobs at 160 uM GlcN6P (s⁻¹)": "1e-05"}
{"Sequence input": "AUAAAAGCGUCAGAACUACAGAAAUGUAGUUGACGAGGAGGAGGUUUAUCGAAUUUUCGGCGGAGGCCUCCAAA [C10U U65G]", "Readout relation": "<", "self-cleavage kobs at 160 uM GlcN6P (s⁻¹)": "1e-05"}
{"Sequence input": "AUAAAAGCGCCAGAACUACAGAAAUGUAGUUGACGAGGAGGAGGUUUAUCGAAUUAUCGGCGGAUGCCUCCAAA [U56A]", "Readout relation": "=", "self-cleavage kobs at 160 uM GlcN6P (s⁻¹)": 0.00127}
{"Sequence input": "AUAAAAGCGCCAGAACUACAGAAAUGUAGUUGAUCAGGAGGAGGUUUAUCGAAUUUUCGGCGGAUGCCUCCAAA [C34U G35C]", "Readout relation": "<", "self-cleavage kobs at 160 uM GlcN6P (s⁻¹)": "1e-05"}
{"Sequence input": "AUAAAAGCGCCAGAACUACAGAAAUGUAGUUGACUAGGAGGAGGUUUAUCGAAUUUUUGGCGGAUGCCUCCAAA [G35U C58U]", "Readout relation": "<", "self-cleavage kobs at 160 uM GlcN6P (s⁻¹)": "1e-05"}
{"Sequence input": "AUAAAAGCGCCAGAACUACAGAAAUGUAGUCGACGAGGAGGAGGUUUAUCGAAUUUUCGGCGGAUGACUCCAAA [U31C C67A]", "Readout relation": "=", "self-cleavage kobs at 160 uM GlcN6P (s⁻¹)": "5.29e-05"}
{"Sequence input": "AUAAAAGCGCCAGAACUACAGAAAUGUAGUUGACAAGGAGGAGGUUUAUCGAAUUUUCGGCGGAUUCCUCCAAA [G35A G66U]", "Readout relation": "<", "self-cleavage kobs at 160 uM GlcN6P (s⁻¹)": "1e-05"}
{"Sequence input": "AUAAAACCGCCAGAAGUACAGAAAUGUAGUUGACGAGGAGGAGGUUUAUCGAAUUUUCGGCGGAUGCCUCCAAA [G7C C16G]", "Readout relation": "<", "self-cleavage kobs at 160 uM GlcN6P (s⁻¹)": "1e-05"}
{"Sequence input": "AUAAAAGCGCCAGAACUACAGAAAUGUAGUUGACGAGGAGGAGGUUUAUCGAAUUUGCGGCGGAGGCCUCCAAA [U57G U65G]", "Readout relation": "<", "self-cleavage kobs at 160 uM GlcN6P (s⁻¹)": "1e-05"}
{"Sequence input": "AUAAAAGCGCCAGAACUACAGAAAUGUAGUUUACGAGGAGGAGGUUUAUAGAAUUUUCAGCGGAUGCCUCCAAA [G32U C50A G59A]", "Readout relation": "<", "self-cleavage kobs at 160 uM GlcN6P (s⁻¹)": "1e-05"}
{"Sequence input": "AUAAAAGCGCCAGAACUACAGAAAUGUAGUUGACGAGGAGGAGGUUUAUCGAAUUUUCGUCGGAUGGCUCCAAA [G60U C67G]", "Readout relation": "<", "self-cleavage kobs at 160 uM GlcN6P (s⁻¹)": "1e-05"}
{"Sequence input": "AUAAAAGCGCCAGAACUACAGAAAUGUAGUUGACGAGGAGGAGGUUUAUCGAAUUGUCGGCGGAUGACUCCAAA [U56G C67A]", "Readout relation": "=", "self-cleavage kobs at 160 uM GlcN6P (s⁻¹)": 0.000207}
{"Sequence input": "AUAAAAGCGCCAGAACUACAGAAAUGUAGUUCACGAGGAGGAGGUUUAGCGAAUUUUCGGCGGAUGCCUCCAAA [G32C U49G]", "Readout relation": "<", "self-cleavage kobs at 160 uM GlcN6P (s⁻¹)": "1e-05"}
{"Sequence input": "AUAAAAGCGCCGGAACUACAGAAAUGUAGUUGACGAGGAGGAGGUUAAUCGAAUUUUCGACGGAUGCCUCCAAA [A12G U47A G60A]", "Readout relation": "<", "self-cleavage kobs at 160 uM GlcN6P (s⁻¹)": "1e-05"}
{"Sequence input": "AUAAAAGCGCCAGAACUACAGAAAUGUAGUUGACGAGGAGGAGGUUUAUCGAAUGUUCGGCGGAAGCCUCCAAA [U55G U65A]", "Readout relation": "=", "self-cleavage kobs at 160 uM GlcN6P (s⁻¹)": 0.000296}
{"Sequence input": "AUAAAAGCGCCAGACCUACAGAAAUGUAGAUGACGAGGAGGAGGUUUAUCGAAUUUUCGGCGGAUGACUCCAAA [A15C U30A C67A]", "Readout relation": "=", "self-cleavage kobs at 160 uM GlcN6P (s⁻¹)": 0.000277}
{"Sequence input": "AUAAAAGCGCCAGAACUACAGAAAUGUAGUUGACGAGGAGGAGGUGGAUCGAAUUUUCGGCGGAUGCCUCCAAA [U46G U47G]", "Readout relation": "=", "self-cleavage kobs at 160 uM GlcN6P (s⁻¹)": 0.000208}
{"Sequence input": "AUAAAAGCGCCAGAACUACAGAAAUGUAGUUGACGAGGAGGAGGUUUCUCGAAUUUUCGGCGGAUGCCCCCAAA [A48C U69C]", "Readout relation": "<", "self-cleavage kobs at 160 uM GlcN6P (s⁻¹)": "1e-05"}
{"Sequence input": "AUAAAUGCGCCAGAACUACAGAAAUGUAGUUGACGAGGAGGAGGUUAAUCGAUUUUUCGGCGGAUGCCUCCAAA [A6U U47A A53U]", "Readout relation": "<", "self-cleavage kobs at 160 uM GlcN6P (s⁻¹)": "1e-05"}
{"Sequence input": "AUAAAAGCGCCAGAACUACAGAAAUGUAGUUGACGAGGAGGAGGUUUAUCGAAUUUUCGGGUGAUGCCUCCAAA [C61G G62U]", "Readout relation": "<", "self-cleavage kobs at 160 uM GlcN6P (s⁻¹)": "1e-05"}
{"Sequence input": "AUAAAAGCGCCAGAACUACAGAAAUGUAGUUGACGAGGAGGAGGUUUAUCGUAUUUUCGACGGAUGCCUCCAAA [A52U G60A]", "Readout relation": "<", "self-cleavage kobs at 160 uM GlcN6P (s⁻¹)": "1e-05"}
{"Sequence input": "AUAAAAGCGCCAGAACUACAGAAAUGUAGUUGACGAGGAGGAGGUUUAUCGAAUUUUCGGCGGAUGGCGCCAAA [C67G U69G]", "Readout relation": "<", "self-cleavage kobs at 160 uM GlcN6P (s⁻¹)": "1e-05"}
{"Sequence input": "AUAAAAGCGCCAGAACUACAGAAAUGUAGUUGACGAGGAGGAGGUGUAGCGAAUUUUCGGCGACUGCCUCCAAA [U46G U49G G63A A64C]", "Readout relation": "<", "self-cleavage kobs at 160 uM GlcN6P (s⁻¹)": "1e-05"}
{"Sequence input": "AUAAAAGCGCCAGGACUACAGAAAUGUAGUUGACGAGGAGGAGGUUUAUGGAAUUUUCGGCGGAUGCCUCUAAA [A14G C50G C71U]", "Readout relation": "=", "self-cleavage kobs at 160 uM GlcN6P (s⁻¹)": 0.000245}
{"Sequence input": "AUAAAAGUGCCAGAACUACAGAAAUGUAGUUAACGAGGAGGAGGAUUAUCGAAUUCUCGGCGGAUGCCUCCAAA [C8U G32A U45A U56C]", "Readout relation": "<", "self-cleavage kobs at 160 uM GlcN6P (s⁻¹)": "1e-05"}
{"Sequence input": "AUAAAAGCGCCAGAACUACAGAAAUGUAGUUGACGAGGAGGAGGUUUAUCGAGUUAUCGGCGGAUGCCUCCAAA [A53G U56A]", "Readout relation": "=", "self-cleavage kobs at 160 uM GlcN6P (s⁻¹)": 0.00116}
{"Sequence input": "AUAAAAGCGCCAGAACUACAGAAAUGUAGUUGACGAGGUGGAGGUUUAUCGAAUUUUCGGCGGAUACCUCCAAA [A39U G66A]", "Readout relation": "=", "self-cleavage kobs at 160 uM GlcN6P (s⁻¹)": 0.000797}
{"Sequence input": "AUAAAAGCGCCAGAAUUACAGAAAUGUAGUUGAGGAGGAGGAGGUUUAUCGAAUUUUCGGCGGAUGCCUCCAAA [C16U C34G]", "Readout relation": "<", "self-cleavage kobs at 160 uM GlcN6P (s⁻¹)": "1e-05"}
{"Sequence input": "AUAAAACCGCCAUAACUACAGAAAUGUAGUUGACGCGGAGGAGGUUUAUCGAAUUUUCGGCGGAUGCAUCCAAA [G7C G13U A36C C68A]", "Readout relation": "<", "self-cleavage kobs at 160 uM GlcN6P (s⁻¹)": "1e-05"}
{"Sequence input": "AUAAAAGCGCCAGAACUACAGAAAUGUAGUUGACCAGGAGGAGGUUUAUGGAAUUUUCGGCGGAUGCCUCCAAA [G35C C50G]", "Readout relation": "=", "self-cleavage kobs at 160 uM GlcN6P (s⁻¹)": "7.69e-05"}
{"Sequence input": "AUAAAAGCGCCAGAACUACAGAAAUGUAGUUGACGAGGAGGAGGUUAAUCGAAUCUUCGGCGGAUGCCUCCAAA [U47A U55C]", "Readout relation": "=", "self-cleavage kobs at 160 uM GlcN6P (s⁻¹)": 0.00116}
{"Sequence input": "AUAAAAGCGCCAGAGCUACAGAAAUGUAGUUGACGAGGAGGAGGUUUAUCGAAUUUUCGGCGGACGCCUCCAAA [A15G U65C]", "Readout relation": "=", "self-cleavage kobs at 160 uM GlcN6P (s⁻¹)": "7.34e-05"}
{"Sequence input": "AUAAAAGCGCCAGAACUACAGAAAUGUAGUUGACGAGGAGGAGGUUUACCGAAUUUCCGGCGGAUGCCUCCAAA [U49C U57C]", "Readout relation": "<", "self-cleavage kobs at 160 uM GlcN6P (s⁻¹)": "1e-05"}
{"Sequence input": "AUAAAAGCGCCAGAACUACAGAAAUGUAGUUGACGAGGAGGAGGUUUAUCGAAUCUUCGGCGGAUGCCUCCAAA [U55C]", "Readout relation": "=", "self-cleavage kobs at 160 uM GlcN6P (s⁻¹)": 0.0027}
{"Sequence input": "AUAAAAGCGCCUGAACUACAGAAAUGUACUUGACGAGGAGGAGGUUUAUCGAAUUUUCGGCGGAUGCCUCCAAA [A12U G29C]", "Readout relation": "=", "self-cleavage kobs at 160 uM GlcN6P (s⁻¹)": 0.000653}
{"Sequence input": "AUAAAAGCGCCAGAACUACAGAAAUGUAGUUGACGAGGAGGACGUUUAUCGAAUUUUCGGUGGAUGCCUCCAAA [G43C C61U]", "Readout relation": "<", "self-cleavage kobs at 160 uM GlcN6P (s⁻¹)": "1e-05"}
